tgt: T1, human galectin-10-His (recombinant human galectin-10 with TEV-cleavable N-terminal His-tag) (human)
T1 construct: SEC-MALLS: dimer in solution; also called Gal10-His; humanGal10-His
T1 chain: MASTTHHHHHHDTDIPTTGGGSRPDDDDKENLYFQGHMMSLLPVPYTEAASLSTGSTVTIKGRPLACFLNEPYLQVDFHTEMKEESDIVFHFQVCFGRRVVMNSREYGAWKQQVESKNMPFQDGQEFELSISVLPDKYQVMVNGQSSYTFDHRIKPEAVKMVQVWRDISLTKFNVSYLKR
test: ELISA, Fab on coated galectin-10-His
reportedProperty: Bmax (OD)
Number in OD, nothing else.

Let me know recorded Bmax for 6F05 Fab (Fab, V domains shown, VH on human CH1 constant domain (with part of the hinge region), VL on human lambda constant domain; also called 6F5; Fab 6F5) VH: QLQLVESGGGLVQPGGSLRLSCAASGFTFSSYAMSWVRQAPGKGLEWVSAINSGGGSTSYADSVKGRFTISRDNAKNTLYLQMNSLKPEDTAVYYCATPGDRLWYYRYDYWGQGTQVTVSS VL: QAGLTQPPSVSGTLGKAVTISCAGTSSDIGYGNYVSWYQQLPGTAPKLLIYKVSRRASGVPDRFSGSKSGNTASLSISGLQSEDEADYYCASYRYRNNVVFGGGTHLTVL , thanks.
0.8

Let me know recorded Bmax for 4E08 Fab (Fab, V domains shown, VH on human CH1 constant domain (with part of the hinge region), VL on human lambda constant domain; also called 4E8; Fab 4E8) VH: QVQRQESGPGLVKPSQTLSLTCTVSGGSITTSYYAWSWIRQPPGKGLEWMGVIASDGSTYYSPSLKSRTSISRDTSKNQFSLQLSSVTPEDTAVYYCALYIRGSSWSGWSAYDYWGQGTQVTVSS VL: QPVLNQPSAVSVSLGQTARITCQGGNFGYYYGSWYQQKPGQAPVLVIYKDSERPSGIPERFSGSSSGGTATLTISRAQAEDEADYYCQSADSSDNPVFGGGTHLTVL , thanks.
0.7

Let me know recorded Bmax for 1C09 Fab (Fab, V domains shown, VH on human CH1 constant domain (with part of the hinge region), VL on human lambda constant domain; also called 1C9; Fab 1C09) VH: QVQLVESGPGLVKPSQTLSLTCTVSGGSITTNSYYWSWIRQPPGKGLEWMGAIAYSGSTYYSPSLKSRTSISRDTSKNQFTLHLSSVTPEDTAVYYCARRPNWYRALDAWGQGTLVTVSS VL: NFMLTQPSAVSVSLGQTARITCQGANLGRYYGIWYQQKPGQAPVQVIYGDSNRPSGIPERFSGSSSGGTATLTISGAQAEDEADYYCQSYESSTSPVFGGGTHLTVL , thanks.
1
